Reported chromatographic logP values follow for various compounds
# protocol-details: log P by HPLC (EEC-Directive 79/831 Annex V. A8)
# Type: physicochemical
# condition-info: gradient method, acetonitrile/0.1% aqueous phosphoric acid

{"line-notation": "Cc1cccc(C)c1Oc1noc(=O)n1S(=O)(=O)c1c(C)noc1C", "chromatographic logP": 3.54}
{"line-notation": "Cc1noc(C)c1S(=O)(=O)n1c(Oc2ccc(Cl)cc2)noc1=O", "chromatographic logP": 3.45}
{"line-notation": "Cc1ccccc1Oc1noc(=O)n1S(=O)(=O)c1c(C)noc1C", "chromatographic logP": 3.28}
{"line-notation": "Cc1ccc(Oc2noc(=O)n2S(=O)(=O)c2c(C)noc2C)c(C)c1", "chromatographic logP": 3.63}
{"line-notation": "Cc1ccc(C(C)C)c(Oc2noc(=O)n2S(=O)(=O)c2c(C)noc2C)c1", "chromatographic logP": 4.19}
{"line-notation": "COC(=O)c1ccc(Oc2noc(=O)n2S(=O)(=O)c2c(C)noc2C)cc1", "chromatographic logP": 3.07}

* * *

# System: Phytophthora infestans
# protocol-details: whole plant or invertebrate
# Assay type: in vivo, Phytophthora infestans (on tomato plants)
# condition-info: in Solanum lycopersicum, 72 h, read-out: Efficacy in %
Classify as follows. Reported pest or weed control at 50 g/ha greater than or equal to 90%: true. Reported pest or weed control at 50 g/ha below: false.

{"compound": "Cc1noc(C)c1S(=O)(=O)n1c(N(C)C2CCCCC2)noc1=O", "group-label": "false"}
{"compound": "Cc1ccc(Oc2noc(=O)n2S(=O)(=O)c2c(N)noc2C)cc1C", "group-label": "true"}
{"compound": "Cc1ccc(C(C)C)c(Oc2noc(=O)n2S(=O)(=O)c2c(C)noc2C)c1 [drawing 42]", "group-label": "true"}
{"compound": "COC(=O)c1ccc(Oc2noc(=O)n2S(=O)(=O)c2c(C)noc2C)cc1 [drawing 39]", "group-label": "false"}
{"compound": "Cc1cc(C)cc(Oc2noc(=O)n2S(=O)(=O)c2c(C)noc2C)c1", "group-label": "true"}
{"compound": "Cc1ccccc1Oc1noc(=O)n1S(=O)(=O)c1c(C)noc1C [drawing 43]", "group-label": "true"}
{"compound": "Cc1ccc(Oc2noc(=O)n2S(=O)(=O)c2c(C)noc2C)cc1C", "group-label": "true"}
{"compound": "Cc1ccc(Oc2noc(=O)n2S(=O)(=O)c2c(C)noc2C)c(C)c1 [drawing 40]", "group-label": "true"}
{"compound": "Cc1ccc(C)c(Oc2noc(=O)n2S(=O)(=O)c2c(N)noc2C)c1", "group-label": "true"}
{"compound": "Cc1noc(C)c1S(=O)(=O)n1c(Oc2ccc(Cl)cc2)noc1=O [drawing 44]", "group-label": "true"}
{"compound": "Cc1cc(C)cc(Oc2noc(=O)n2S(=O)(=O)c2c(N)noc2C)c1", "group-label": "true"}
{"compound": "Cc1ccc(C)c(Oc2noc(=O)n2S(=O)(=O)c2c(C)noc2C)c1", "group-label": "true"}

All figures here come from patent US6136830A.
